# APPLIED CONDITIONS: in ethyl acetate, 293.15 K
MEASUREMENT TYPE: solubility (mole fraction)
# answer = number (no unit)

Query: Using the record for CC(=O)Nc1ccccc1[N+](=O)[O-] , state its measured solubility (mole fraction).
Reply: 0.079

====

# APPLIED CONDITIONS: in NMP, 323.15 K
MEASUREMENT TYPE: solubility (mole fraction)
# answer = number (no unit)

Query: Using the record for CC(=O)Nc1ccccc1[N+](=O)[O-] , state its measured solubility (mole fraction).
Reply: 0.491

====

# APPLIED CONDITIONS: in methanol, 323.15 K
MEASUREMENT TYPE: solubility (mole fraction)
# answer = number (no unit)

Query: Using the record for CC(=O)Nc1ccccc1[N+](=O)[O-] , state its measured solubility (mole fraction).
Reply: 0.0926

====

# APPLIED CONDITIONS: in isobutanol, 318.15 K
MEASUREMENT TYPE: solubility (mole fraction)
# answer = number (no unit)

Query: Using the record for CC(=O)Nc1ccccc1[N+](=O)[O-] , state its measured solubility (mole fraction).
Reply: 0.0374

====

# APPLIED CONDITIONS: in ethanol, 318.15 K
MEASUREMENT TYPE: solubility (mole fraction)
# answer = number (no unit)

Query: Using the record for CC(=O)Nc1ccccc1[N+](=O)[O-] , state its measured solubility (mole fraction).
Reply: 0.0516

====

# APPLIED CONDITIONS: in n-heptanol, 308.15 K
MEASUREMENT TYPE: solubility (mole fraction)

Query: Using the record for CC(=O)Nc1ccccc1[N+](=O)[O-] , state its measured solubility (mole fraction).
Reply: 0.0209

====

# APPLIED CONDITIONS: in ethyl acetate, 313.15 K
MEASUREMENT TYPE: solubility (mole fraction)

Query: Using the record for CC(=O)Nc1ccccc1[N+](=O)[O-] , state its measured solubility (mole fraction).
Reply: 0.163

====

# APPLIED CONDITIONS: in water, 278.15 K
MEASUREMENT TYPE: solubility (mole fraction)
# answer = number (no unit)

Query: Using the record for CC(=O)Nc1ccccc1[N+](=O)[O-] , state its measured solubility (mole fraction).
Reply: 9.9e-05

====

# APPLIED CONDITIONS: in n-butanol, 308.15 K
MEASUREMENT TYPE: solubility (mole fraction)

Query: Using the record for CC(=O)Nc1ccccc1[N+](=O)[O-] , state its measured solubility (mole fraction).
Reply: 0.028

====

# APPLIED CONDITIONS: in n-heptanol, 278.15 K
MEASUREMENT TYPE: solubility (mole fraction)
# answer = number (no unit)

Query: Using the record for CC(=O)Nc1ccccc1[N+](=O)[O-] , state its measured solubility (mole fraction).
Reply: 0.00627

====

# APPLIED CONDITIONS: in methanol, 303.15 K
MEASUREMENT TYPE: solubility (mole fraction)

Query: Using the record for CC(=O)Nc1ccccc1[N+](=O)[O-] , state its measured solubility (mole fraction).
Reply: 0.0394

====

# APPLIED CONDITIONS: in DMF, 293.15 K
MEASUREMENT TYPE: solubility (mole fraction)
# answer = number (no unit)

Query: Using the record for CC(=O)Nc1ccccc1[N+](=O)[O-] , state its measured solubility (mole fraction).
Reply: 0.213

====

# APPLIED CONDITIONS: in ethanol, 323.15 K
MEASUREMENT TYPE: solubility (mole fraction)
# answer = number (no unit)

Query: Using the record for CC(=O)Nc1ccccc1[N+](=O)[O-] , state its measured solubility (mole fraction).
Reply: 0.0615

====

# APPLIED CONDITIONS: in isobutanol, 293.15 K
MEASUREMENT TYPE: solubility (mole fraction)
# answer = number (no unit)

Query: Using the record for CC(=O)Nc1ccccc1[N+](=O)[O-] , state its measured solubility (mole fraction).
Reply: 0.0134

====

# APPLIED CONDITIONS: in 1,4-dioxane, 313.15 K
MEASUREMENT TYPE: solubility (mole fraction)
# answer = number (no unit)

Query: Using the record for CC(=O)Nc1ccccc1[N+](=O)[O-] , state its measured solubility (mole fraction).
Reply: 0.244

====

# APPLIED CONDITIONS: in NMP, 303.15 K
MEASUREMENT TYPE: solubility (mole fraction)
# answer = number (no unit)

Query: Using the record for CC(=O)Nc1ccccc1[N+](=O)[O-] , state its measured solubility (mole fraction).
Reply: 0.33

====

# APPLIED CONDITIONS: in methanol, 313.15 K
MEASUREMENT TYPE: solubility (mole fraction)
# answer = number (no unit)

Query: Using the record for CC(=O)Nc1ccccc1[N+](=O)[O-] , state its measured solubility (mole fraction).
Reply: 0.0558

====

# APPLIED CONDITIONS: in acetonitrile, 318.15 K
MEASUREMENT TYPE: solubility (mole fraction)
# answer = number (no unit)

Query: Using the record for CC(=O)Nc1ccccc1[N+](=O)[O-] , state its measured solubility (mole fraction).
Reply: 0.0932

====

# APPLIED CONDITIONS: in n-butanol, 303.15 K
MEASUREMENT TYPE: solubility (mole fraction)

Query: Using the record for CC(=O)Nc1ccccc1[N+](=O)[O-] , state its measured solubility (mole fraction).
Reply: 0.0232

====

# APPLIED CONDITIONS: in n-butanol, 323.15 K
MEASUREMENT TYPE: solubility (mole fraction)
# answer = number (no unit)

Query: Using the record for CC(=O)Nc1ccccc1[N+](=O)[O-] , state its measured solubility (mole fraction).
Reply: 0.0529

====

# APPLIED CONDITIONS: in cyclohexane, 283.15 K
MEASUREMENT TYPE: solubility (mole fraction)
# answer = number (no unit)

Query: Using the record for CC(=O)Nc1ccccc1[N+](=O)[O-] , state its measured solubility (mole fraction).
Reply: 0.00106

====

# APPLIED CONDITIONS: in isopropanol, 283.15 K
MEASUREMENT TYPE: solubility (mole fraction)
# answer = number (no unit)

Query: Using the record for CC(=O)Nc1ccccc1[N+](=O)[O-] , state its measured solubility (mole fraction).
Reply: 0.00851

====

# APPLIED CONDITIONS: in n-heptanol, 318.15 K
MEASUREMENT TYPE: solubility (mole fraction)
# answer = number (no unit)

Query: Using the record for CC(=O)Nc1ccccc1[N+](=O)[O-] , state its measured solubility (mole fraction).
Reply: 0.0337

====

# APPLIED CONDITIONS: in isopropanol, 308.15 K
MEASUREMENT TYPE: solubility (mole fraction)
# answer = number (no unit)

Query: Using the record for CC(=O)Nc1ccccc1[N+](=O)[O-] , state its measured solubility (mole fraction).
Reply: 0.0227

====

# APPLIED CONDITIONS: in ethanol, 298.15 K
MEASUREMENT TYPE: solubility (mole fraction)
# answer = number (no unit)

Query: Using the record for CC(=O)Nc1ccccc1[N+](=O)[O-] , state its measured solubility (mole fraction).
Reply: 0.0276

====

# APPLIED CONDITIONS: in n-propanol, 323.15 K
MEASUREMENT TYPE: solubility (mole fraction)
# answer = number (no unit)

Query: Using the record for CC(=O)Nc1ccccc1[N+](=O)[O-] , state its measured solubility (mole fraction).
Reply: 0.0578

====

# APPLIED CONDITIONS: in acetonitrile, 298.15 K
MEASUREMENT TYPE: solubility (mole fraction)
# answer = number (no unit)

Query: Using the record for CC(=O)Nc1ccccc1[N+](=O)[O-] , state its measured solubility (mole fraction).
Reply: 0.0302

====

# APPLIED CONDITIONS: in DMF, 308.15 K
MEASUREMENT TYPE: solubility (mole fraction)
# answer = number (no unit)

Query: Using the record for CC(=O)Nc1ccccc1[N+](=O)[O-] , state its measured solubility (mole fraction).
Reply: 0.295

====

# APPLIED CONDITIONS: in water, 318.15 K
MEASUREMENT TYPE: solubility (mole fraction)
# answer = number (no unit)

Query: Using the record for CC(=O)Nc1ccccc1[N+](=O)[O-] , state its measured solubility (mole fraction).
Reply: 0.000662

====

# APPLIED CONDITIONS: in ethylene glycol, 313.15 K
MEASUREMENT TYPE: solubility (mole fraction)
# answer = number (no unit)

Query: Using the record for CC(=O)Nc1ccccc1[N+](=O)[O-] , state its measured solubility (mole fraction).
Reply: 0.0155

====

# APPLIED CONDITIONS: in cyclohexane, 288.15 K
MEASUREMENT TYPE: solubility (mole fraction)
# answer = number (no unit)

Query: Using the record for CC(=O)Nc1ccccc1[N+](=O)[O-] , state its measured solubility (mole fraction).
Reply: 0.00133

====

# APPLIED CONDITIONS: in methanol, 318.15 K
MEASUREMENT TYPE: solubility (mole fraction)
# answer = number (no unit)

Query: Using the record for CC(=O)Nc1ccccc1[N+](=O)[O-] , state its measured solubility (mole fraction).
Reply: 0.0703
